# experiment: Human HepG2 cell viability assay in 384 well format
# Format: toxicity, cell-based
# Parameters: dose 125 nL, time 70.5 hour; concentration not given beside the values
# protocol conditions: HepG2 cells, read-out: Inhibition
outcome measure: cytotoxicity at 70.5 h (%)
Report the figure in % without appending any unit label.

[
  {
    "compound": "CCOc1ccc(Cl)cc1CNCCCn1ccnc1",
    "cytotoxicity at 70.5 h (%)": 23.2
  },
  {
    "compound": "COCCC(C)NC(=O)N1CCC(n2ccc(C(F)(F)F)n2)CC1 (centres undefined)",
    "cytotoxicity at 70.5 h (%)": -98.6
  },
  {
    "compound": "Cn1cc(CNC2CCCOc3c2ccc2ccccc32)cn1 (centres undefined)",
    "cytotoxicity at 70.5 h (%)": 2.1
  },
  {
    "compound": "Cc1cc(C)c2[nH]c(C(=O)NCCN3CCNC3=O)c(C)c2c1",
    "cytotoxicity at 70.5 h (%)": -5.43
  },
  {
    "compound": "CCC(C)(C)NC(=O)C[S+]([O-])Cc1csc(C2CCCC2)n1 (centres undefined)",
    "cytotoxicity at 70.5 h (%)": 11
  },
  {
    "compound": "CCC(=O)NCC(=O)NCc1cc(Br)ccc1OC(F)F",
    "cytotoxicity at 70.5 h (%)": -5.29
  },
  {
    "compound": "CC(C)CN1C(=O)CO[C@@H]2CN(C(=O)N3CCOCC3)C[C@H]21",
    "cytotoxicity at 70.5 h (%)": -2.58
  },
  {
    "compound": "N[C@H]1CN(S(=O)(=O)N2CCCC2)C[C@@H]1c1ccccc1",
    "cytotoxicity at 70.5 h (%)": -4.68
  }
]

Task: Field request: cytotoxicity at 70.5 h | item: COc1nc2c(cc1C(=O)NCCc1nc3ccccc3s1)CCC2
Output: -6.58

Task: Field request: cytotoxicity at 70.5 h | item: COc1cccc(CN2CC[C@H](c3nnc(C)o3)C2)c1
Output: 2.22

Task: Field request: cytotoxicity at 70.5 h | item: c1nc(COCC2CC2)c2n1CCCN(CC1CC1)C2
Output: -18.3

Task: Field request: cytotoxicity at 70.5 h | item: COCCN(Cc1ccsc1)C(=O)c1c(C)cc(C)[nH]c1=O
Output: -1.09

Task: Field request: cytotoxicity at 70.5 h | item: CNS(=O)(=O)c1cccc(CNc2nccc(C(F)(F)F)n2)c1
Output: 53.4

Task: Field request: cytotoxicity at 70.5 h | item: CS(=O)(=O)N[C@H]1CCO[C@]2(CCN(CC3CCOCC3)C2)C1
Output: -11.1

Task: Field request: cytotoxicity at 70.5 h | item: Cc1ncccc1Oc1nccnc1C1CCCN(C(C)C)C1 (centres undefined)
Output: -6.39

Task: Field request: cytotoxicity at 70.5 h | item: CC(=O)N1CCC2(C1)CN(S(=O)(=O)c1ccccc1)C2
Output: -7.01

Task: Field request: cytotoxicity at 70.5 h | item: COCC(O)CN1CCC(=O)N(Cc2ccco2)Cc2ccccc21 (centres undefined)
Output: 26.6

Task: Field request: cytotoxicity at 70.5 h | item: COc1ccc(CC2(C(=O)O)CCN(c3nc(C)ncc3C)CC2)cc1
Output: -10.8

Task: Field request: cytotoxicity at 70.5 h | item: CC(Oc1ccccc1C(F)(F)F)C(=O)NCCCC(N)=O (centres undefined)
Output: 11.1

Task: Field request: cytotoxicity at 70.5 h | item: CNS(=O)(=O)c1ccc(C(=O)NCCNc2ncccn2)cc1
Output: -12.3

Task: Field request: cytotoxicity at 70.5 h | item: CCOC(C)C(=O)NS(=O)(=O)c1cccc2cc(C)cnc12 (centres undefined)
Output: 1.55

Task: Field request: cytotoxicity at 70.5 h | item: COC(=O)Cn1ccc(=O)c2ccc(OC)cc21
Output: 39.1

Task: Field request: cytotoxicity at 70.5 h | item: c1cnc2c(c1)cc([C@@H]1CCCO1)n2CCN1CCOCC1
Output: 0.0365

Task: Field request: cytotoxicity at 70.5 h | item: Cn1cnc(-c2nc(C(=O)NCCN3CCOCC3)c3ccccn23)c1
Output: -2.81
